For each of the molecules below, state its ΔTm at 10 µM.
target: bovine GRK5 (Bos taurus); construct: when using full-length kinases as the receptor[37] instead of isolated kinase domains; made in house; experiment: Primary DSF inhibitor screen, GRK5; format: binding; conditions: 10 μM compound, 2 μM kinase, relative to DMSO control; read-out: ΔTm, primary screen, GRK5
Sequence (P43249 whole entry, the tested form may be a part): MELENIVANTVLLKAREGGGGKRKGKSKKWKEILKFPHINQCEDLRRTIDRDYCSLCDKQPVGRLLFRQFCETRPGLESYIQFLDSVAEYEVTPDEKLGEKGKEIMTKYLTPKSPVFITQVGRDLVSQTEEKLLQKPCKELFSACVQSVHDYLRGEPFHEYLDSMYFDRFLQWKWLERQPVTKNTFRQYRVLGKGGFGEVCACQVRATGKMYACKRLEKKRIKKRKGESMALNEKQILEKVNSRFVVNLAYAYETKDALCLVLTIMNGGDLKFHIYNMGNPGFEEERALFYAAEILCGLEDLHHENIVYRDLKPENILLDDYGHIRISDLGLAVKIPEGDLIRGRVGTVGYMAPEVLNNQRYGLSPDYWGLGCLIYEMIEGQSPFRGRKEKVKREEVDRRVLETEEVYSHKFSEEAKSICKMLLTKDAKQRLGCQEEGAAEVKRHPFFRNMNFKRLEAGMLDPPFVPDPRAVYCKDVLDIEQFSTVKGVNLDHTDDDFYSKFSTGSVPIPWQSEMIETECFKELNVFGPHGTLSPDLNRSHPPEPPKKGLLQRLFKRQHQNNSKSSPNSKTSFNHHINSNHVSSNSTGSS
Numbers only, in °C.

| molecule | ΔTm at 10 µM [°C] |
| --- | --- |
| O=C(Nc1n[nH]c2nc(-c3ccco3)c(Br)cc12)C1CC1 | 2.03 |
| NS(=O)(=O)c1ccc(NN=C2C(=O)Nc3ccc(C(=O)NCCCn4ccnc4)cc32)cc1 [GW290597X] | 3.72 |
| CN1CCN(CCCNc2nc3ccc(Oc4ccc(NC(=O)Nc5cc(C(F)(F)F)ccc5F)cc4)cc3[nH]2)CC1 [GW700494A] | 3.97 |

For each listed entry, give its ΔTm at 10 µM.
1. CCn1c(-c2nonc2N)nc2c(C#CC(C)(C)O)nc(O[C@@H](CN)c3ccccc3)cc21 [GSK1007102B]
2. Fc1cccc(COc2ccc(Nc3ncnc4cc(-c5ccc[nH]5)sc34)cc2Cl)c1 [GW693881A]
3. O=C1Nc2ccccc2/C1=C/Nc1ccc2[nH]c(=O)[nH]c2c1 [GW284408X]
4. CN(C)C(=O)O[C@@H]1CN[C@@H](C#Cc2cc3ncnc(Nc4ccc(OCc5cccc(F)c5)c(Cl)c4)c3s2)C1 [GSK238063A]
5. C[C@@H](Oc1cc(-n2cnc3ccc(OCC4CCN(C)CC4)cc32)sc1C(N)=O)c1ccccc1C(F)(F)F [GSK326090A]
6. c1ccc(COc2ccc(Nc3ncnc4ccc(-c5ccco5)cc34)cc2)cc1 [GW284372X]
7. Cc1ccc(NC(=O)CC2CC2)cc1-c1ccc(C(=O)NCC2CC2)cc1 [GW796920X]

[reply]
1. 3.43
2. 6.93
3. 2.4
4. 2.93
5. 2.06
6. 3.6
7. 3.82

For each listed entry, give its ΔTm at 10 µM.
1. COc1cc2c(cc1Nc1nc(Nc3ccsc3C(N)=O)c3cc[nH]c3n1)N(C(=O)CN(C)C)CCC2 [GSK2110236A]
2. CC(=O)Nc1cccc(C#Cc2cncnc2Nc2ccc(OCc3cccc(F)c3)c(Cl)c2)c1 [GW703087X]
3. COc1cc2c(cc1Nc1nc(Nc3ccsc3C(N)=O)c3cc[nH]c3n1)N(C(=O)CN(C)C)CCC2(C)C [GSK2163632A]
4. O=C1Nc2ccccc2/C1=C1\CCc2cc(O)ccc21 [GR105659X]
5. COc1ccc2c(c1)/C(=C/c1cnc[nH]1)C(=O)N2
6. NC(=O)c1cccc(Nc2nccc(Nc3cccc(F)c3)n2)c1 [GW759710A]

[reply]
[8.36, 3.36, 9.25, 3.25, 3.59, 2.68]

[ask] Dear colleague, I am looking for the recorded ΔTm at 10 µM of the following molecule: NS(=O)(=O)c1ccc(NC=C2C(=O)Nc3ccc4ncsc4c32)cc1 [GW589933X]
[reply] 4.8

----------
For each of the compounds below, state its GRK1 ΔTm.
molecular target: GRK1 (Bos taurus); construct: Bovine GRK1_1–535, bovine and human GRK2S670A; made in house; assay: DSF retest (confirmation), GRK1; format: binding, bovine; conditions: relative to intrinsic melting point of the kinase
Sequence (P28327 1-535): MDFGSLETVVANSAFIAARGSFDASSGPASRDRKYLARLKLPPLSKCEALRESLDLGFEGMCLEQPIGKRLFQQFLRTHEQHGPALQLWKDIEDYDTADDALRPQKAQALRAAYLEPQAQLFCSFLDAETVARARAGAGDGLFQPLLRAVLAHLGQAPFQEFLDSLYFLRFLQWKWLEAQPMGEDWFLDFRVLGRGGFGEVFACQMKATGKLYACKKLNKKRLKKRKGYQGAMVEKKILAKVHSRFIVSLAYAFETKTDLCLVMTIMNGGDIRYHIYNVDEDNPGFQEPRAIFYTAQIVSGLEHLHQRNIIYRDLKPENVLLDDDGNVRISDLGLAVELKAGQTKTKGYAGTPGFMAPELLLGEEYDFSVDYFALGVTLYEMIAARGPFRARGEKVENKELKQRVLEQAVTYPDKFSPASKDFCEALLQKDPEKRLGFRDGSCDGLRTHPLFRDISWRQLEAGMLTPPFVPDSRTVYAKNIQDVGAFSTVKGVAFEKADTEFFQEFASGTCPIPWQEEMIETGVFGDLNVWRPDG
Give bare numbers, in °C.

Here are 4 compounds together with their reported answers.
| compound | tgt | GRK1 ΔTm [°C] |
| --- | --- | --- |
| CCn1c(-c2nonc2N)nc2c(C#CC(C)(C)O)nc(O[C@@H](CN)c3ccccc3)cc21 [GSK1007102B] | GRK1 (Bos taurus) | 6.8 |
| CC(C)COC(=O)c1ccc2c(c1)/C(=C/Nc1ccc(S(N)(=O)=O)cc1)C(=O)N2 [GW416981X] | GRK1 (Bos taurus) | 4.9 |
| CN(c1ccc(NC(=O)Nc2ccc(OC(F)(F)F)cc2)cc1)c1ccnc(Nc2cccc(S(N)(=O)=O)c2)n1 [GW806742X] | GRK1 (Bos taurus) | 0.4 |
| CC1=C(C(=O)Nc2ccc3[nH]ncc3c2)C(c2ccc(Cl)c(Cl)c2)CC(=O)N1 (centres unmarked) [GSK299115A] | GRK1 (Bos taurus) | 3.5 |

[ask] Dear colleague, I am looking for the recorded GRK1 ΔTm of the following compound: Fc1cccc(COc2ccc(Nc3ncnc4cc(-c5ccc[nH]5)sc34)cc2Cl)c1 [GW693881A]
[reply] 4.9
